measured attribute: melting point

Worked cases, melting point given:
molecule="Nc1ncnc2c1ncn2C1CC(O)C2CC21 (centres undefined)" observed_value="259 to 261 °C"
molecule="CC(C)CCCC(C)C1CCC2(C#N)C3C=CC4C(C)(C)C(OC(=O)c5ccccc5)CCC4(C)C3CCC12C (centres undefined)" observed_value="232 to 233 °C"
molecule=COC(=O)[C@@H]1C[C@H](N)C(=O)[C@H]2[C@@]1(C)CC[C@H]1C(=O)O[C@H](c3ccoc3)C[C@]21C observed_value="237 to 240 °C"
molecule="OCC1Cc2cc(F)cc(Br)c2O1 (centres undefined)" observed_value="53 to 57 °C"
molecule="COC(=O)C1=CCC(=C2CCC3=C(N=C(C(C)C)C(C(C)C)N3)C2=O)C=C1 (centres undefined)" observed_value="100 to 102 °C"

Input: Retrieve melting point measured for O=C(O)COc1ccc2cc(-c3oc4ccccc4c3C(=O)c3ccccc3)ccc2c1 and print it.
Output: 178 to 181 °C

Input: Retrieve melting point measured for CCOc1ccc(C=C2N=C(C)OC2=O)cc1OCC and print it.
Output: 117 to 119 °C

Input: Retrieve melting point measured for CC(C)(C)OC(=O)n1nc(-c2cc3ccc(OCCCN4CCCC(O)C4)cc3n2C(=O)OC(C)(C)C)c2sc(-c3ccccc3)cc21 (centres undefined) and print it.
Output: 213 to 216 °C

Input: Retrieve melting point measured for C#Cc1ccc2c(c1)C(CCOCCOCCOC)(CCOCCOCCOC)c1cc(C#C)ccc1-2 and print it.
Output: 68 °C

----------
measured attribute: melting point

Worked cases, melting point given:
molecule=C/C(=C\c1ccc(C(F)(F)F)cc1)[C@H]1OC[C@H](SCc2ccc(Cl)cc2)CO1 observed_value="93 to 95 °C"
molecule=OCc1cccc2c1ccn2-c1ccnc(N[C@H]2CC[C@H](O)CC2)n1 observed_value="212 to 213 °C"
molecule=Cc1ccc(-c2csc(/C=C/C(=O)O)c2)cc1 observed_value="206 to 207 °C"
molecule=CC(C)OC(=O)c1cc(-n2c(=O)[nH]c3c(c2=O)CSC3)c(F)cc1Cl observed_value="180 to 183 °C"
molecule=COc1ccc2c(C)cc(=O)oc2c1C observed_value="162 to 164 °C"

// below: melting point requested for another molecule
Input: Retrieve melting point measured for CC(=O)SCC(CC(C)C)C(=O)NCC(=O)O (stereo unspecified) and print it.
Output: 120 to 121 °C

----------
measured attribute: melting point

compound="C#CC(O)(C(Oc1ccc(F)cc1)n1cncn1)C(C)(C)C (stereo unspecified)" observed_value="134 to 135 °C"

Input: Retrieve melting point measured for OC(c1cc(-c2ccc(F)cc2)c(-c2ccc(F)cc2)[nH]1)(C(F)(F)F)C(F)(F)F and print it.
Output: 112 to 113 °C

Input: Retrieve melting point measured for COc1c([N+](=O)[O-])ncn1C and print it.
Output: 140 to 141 °C

Input: Retrieve melting point measured for CCn1c(C=NNC(N)=S)cnc1[N+](=O)[O-] and print it.
Output: 220 to 222 °C

Input: Retrieve melting point measured for O=CNCc1ncc(-c2ccccc2)o1 and print it.
Output: 225 to 228 °C

Input: Retrieve melting point measured for COc1ccccc1N1CCc2c(C)nc3c(OC)cccc3c21 and print it.
Output: 168 to 169 °C

Provenance of the data: a melting point compilation (Tetko et al.; mined from patent text by program, amines drawn as free bases though some values may be those of a salt)
